target: PAF receptor (Oryctolagus cuniculus, UniProt G1TEI7)
Sequence (G1TEI7 1-342): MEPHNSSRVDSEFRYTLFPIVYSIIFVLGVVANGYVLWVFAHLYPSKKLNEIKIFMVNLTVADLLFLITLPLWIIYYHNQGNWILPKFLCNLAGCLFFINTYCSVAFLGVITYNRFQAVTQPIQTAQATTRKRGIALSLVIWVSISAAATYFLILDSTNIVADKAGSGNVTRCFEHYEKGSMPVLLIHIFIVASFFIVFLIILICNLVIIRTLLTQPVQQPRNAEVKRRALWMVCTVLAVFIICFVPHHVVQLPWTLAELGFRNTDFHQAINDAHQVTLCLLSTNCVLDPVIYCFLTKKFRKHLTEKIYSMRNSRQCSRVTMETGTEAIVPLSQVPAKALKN
pKi: −log10 of the molar value. Where a name gives a salt, the structure may show the parent alone.
param class (str): category from pKi; see ranges one: < 6; two: ≥ 6 and < 7; three: ≥ 7

Q: Band assignment needed for COc1ccc(C(=O)c2cccc(NC(=O)C3CSC(c4cccnc4)N3)c2)cc1OC (stereo not shown) [Example 8, dihydrochloride] please.
Ans: three

Q: Can you check COc1cc(C(=O)c2cccc(NC(=O)NC3CSC(c4cccnc4)S3)c2)cc(OC)c1OC (stereo not shown) [Example 18b] next?
Ans: three

Q: Can you check O=C(c1ccccc1)c1cccc(NC(=O)C2CSC(c3cccnc3)S2)c1 (stereo not shown) next?
Ans: three

Q: Can you check COc1cc(C(=O)c2cccc(N(C)C(=O)C3CSC(c4cccnc4)S3)c2)cc(OC)c1OC (stereo not shown) [Example 16, hydrochloride] next?
Ans: one

Q: Can you check COc1cc(C(=O)c2cccc(N(C)C(=O)NC3CSC(c4cccnc4)S3)c2)cc(OC)c1OC (stereo not shown) [Example 20b] next?
Ans: one

Q: Can you check CN(C(=O)NC1CSC(c2cccnc2)S1)c1cccc(C(=O)c2ccccc2)c1 (stereo not shown) [Example 19b] next?
Ans: one

Q: Can you check CN(C(=O)C1CSC(c2cccnc2)N1)c1cccc(C(=O)c2ccccc2)c1 (stereo not shown) [Example 15, dihydrochloride] next?
Ans: two

Q: Can you check CC(C)(C)OC(=O)N1C(C(=O)Nc2cccc(C(=O)c3ccccc3)c2)CSC1c1cccnc1 (stereo not shown) next?
Ans: one

Q: Can you check O=C(Nc1cccc(C(=O)c2ccccc2)c1)NC1CSC(c2cccnc2)S1 (stereo not shown) [Example 17b] next?
Ans: two

Q: Can you check COc1cc(C(=O)c2cccc(NC(=O)C3CSC(c4cccnc4)N3)c2)cc(OC)c1OC (stereo not shown) [Example 4, dihydrochloride] next?
Ans: three

Q: Can you check COc1ccc(C(=O)c2cccc(NC(=O)C3CSC(c4cccnc4)N3)c2)cc1 (stereo not shown) [Example 5, dihydrochloride] next?
Ans: three

Q: Can you check COc1cc(OC)cc(C(=O)c2cccc(NC(=O)C3CSC(c4cccnc4)N3)c2)c1 (stereo not shown) [Example 7, dihydrochloride] next?
Ans: three

Q: Can you check COc1cc(C(=O)c2cccc(NC(=O)C3CSC(c4cccnc4)S3)c2)cc(OC)c1OC (stereo not shown) next?
Ans: two

Q: Can you check CN(C(=O)NC1CSC(c2cccnc2)S1)c1cccc(C(=O)c2ccccc2)c1 (stereo not shown) [Example 19a] next?
Ans: one

====

target: PAF receptor (Oryctolagus cuniculus, UniProt G1TEI7)
Counter-ions that a name gives are not always drawn.
Exercise: state measured pKi for each of the compounds provided.
pKi here is simply -log10 of the concentration when that concentration is written in mol/L.

Q: # pKi lookup, item O=C(CC1CSC(c2cccnc2)N1)Nc1cccc(C(=O)c2ccccc2)c1 (stereo not shown)
Ans: 5.24

Q: Can you check O=C(c1cccc(NC(=O)C2CSC(c3cccnc3)N2)c1)c1ccc2c(c1)OCO2 (stereo not shown) [Example 6, dihydrochloride] next?
Ans: 7.48

Q: Can you check COc1cc(C(=O)c2cccc(NC(=O)NC3CSC(c4cccnc4)S3)c2)cc(OC)c1OC (stereo not shown) [Example 18a] next?
Ans: 6.19

Q: Can you check COc1cc(C(=O)c2cccc(N(C)C(=O)NC3CSC(c4cccnc4)S3)c2)cc(OC)c1OC (stereo not shown) [Example 20a] next?
Ans: 6.59
